The entries below are paired with their reported Inhibition.
test system: Escherichia coli; conditions: Concentration 32 ug.mL-1;; ASSAY_TEST Inhibition of Bacterial Growth; detection method Absorption (OD600); MEDIA CAMHB; plate type 384well; NBS; CORNING #3640; time 18 hr
Description: Antibacterial activity against Escherichia coli ATCC 25922 (CO-ADD:GN_001); MIC in CAMBH media using NBS plates, by OD(600)
Potency and affinity values are given separately.
Observation type: Inhibition (%)

INSERT INTO measurements (molecule, system_under_test, units_symbol, assay_value) VALUES
  ('Cc1cc(C)c(NC(=O)Cn2nc3c(N4CCCC(C)C4)nccn3c2=O)c(C)c1 (stereo not given)', 'Escherichia coli', '%', -2.83),
  ('O=S(=O)(c1cccn2cnnc12)N(Cc1ccccc1F)c1ccc(F)c(F)c1', 'Escherichia coli', '%', 5.15),
  ('Cc1cc(C)c(NC(=O)CSc2nnc3ccc(C(=O)Nc4cccc(F)c4)cn23)c(C)c1', 'Escherichia coli', '%', 2.09),
  ('CCCc1nnc2c(=O)n(CC(=O)Nc3ccc(Br)cc3)c3ccccc3n12', 'Escherichia coli', '%', 2.53),
  ('COc1ccc(N(Cc2cccc(Cl)c2)S(=O)(=O)c2ccc3nncn3c2)cc1', 'Escherichia coli', '%', -8.34),
  ('Cc1cccc(-c2nc(CSc3nc4ccccc4n4c(C(C)C)nnc34)c(C)o2)c1', 'Escherichia coli', '%', 2.13),
  ('O=C(CCc1nnc2c(N3CCCCC3)nc3ccccc3n12)NCc1ccccc1Cl', 'Escherichia coli', '%', 4.64),
  ('Cc1cc(NC(=O)Cn2nc3ccc(SC(C)(C)C)nn3c2=O)ccc1Br', 'Escherichia coli', '%', -5.34),
  ('CCCCOc1ccc(-c2cc3c4nnc(SCC(=O)Nc5ccccc5F)n4ccn3n2)cc1', 'Escherichia coli', '%', -3.53),
  ('COc1ccc(N2CCN(C(=O)Cn3nc4c(Oc5ccc(C)cc5)nccn4c3=O)CC2)cc1', 'Escherichia coli', '%', -5.74),
  ('COc1ccc(NC(=O)Cn2nc3cc(C)nc(Nc4ccc(F)c(C)c4)n3c2=O)cc1', 'Escherichia coli', '%', -6.2),
  ('CCc1nnc2c(S(=O)(=O)N(Cc3cccc(F)c3)c3ccc(F)cc3)cccn12', 'Escherichia coli', '%', -5),
  ('COC(=O)c1cccc(NC(=O)Cn2nc3ccc(-c4ccccc4)nn3c2=O)c1', 'Escherichia coli', '%', -13.96),
  ('COc1ccc(-c2cc3c4nn(CC(=O)Nc5cc(OC)ccc5OC)c(=O)n4ccn3n2)cc1', 'Escherichia coli', '%', 4.02),
  ('Cc1ccc(-c2ccc3nnc(CCC(=O)NCc4ccc(C(C)C)cc4)n3n2)cc1C', 'Escherichia coli', '%', -3.19),
  ('Cc1cc2nn(CC(=O)Nc3ccc(F)c(F)c3)c(=O)n2c(Nc2ccc(C)c(F)c2)n1', 'Escherichia coli', '%', -3.04),
  ('O=C(Cn1nc2ccc(SC3CCCCC3)nn2c1=O)Nc1ccc2c(c1)OCO2', 'Escherichia coli', '%', -17.56),
  ('COC(=O)c1ccccc1NC(=O)Cn1nc2c3cc(-c4ccc(OC)cc4)nn3ccn2c1=O', 'Escherichia coli', '%', 4.87),
  ('CCc1cccc(NC(=O)Cn2nc3c(SC4CCCCC4)nccn3c2=O)c1', 'Escherichia coli', '%', -12.2),
  ('COc1cccc(CN(c2ccc(F)cc2)S(=O)(=O)c2ccc3nnc(C)n3c2)c1', 'Escherichia coli', '%', -6.02);

Just for reference, ChEMBL document CHEMBL4513146 is where these values come from.
